system: Canis familiaris; test: Antiarrhythmic activity in iv dosed dog assessed as dose required for reversal of ouabain-induced cardiac arrhythmia; format: functional, Canis lupus familiaris, Heart
Quantity measured: Activity

Below, each entry is followed by its recorded Activity result.
>>> test_result("CC(=O)c1cc(NC(=O)Cc2ccccc2)ccc1OCC(O)CNC(C)C (stereo unspecified)")
"12.6 mg/kg"
>>> test_result("CC(=O)c1cc(NC(=O)CC(C)C)ccc1OCC(O)CNC(C)C (stereo unspecified)")
"3.8 mg/kg"
>>> test_result("CCCC(=O)Nc1ccc(OCC(O)CNC(C)C)c(C(=O)CC)c1 (stereo unspecified)")
"6.1 mg/kg"

[in] Query: Activity; subject: CCC(=O)Nc1ccc(OCC(O)CNC(C)C)c(C(=O)CC)c1 (stereo unspecified)
[out] 6.4 mg/kg

[in] Query: Activity; subject: CC(=O)c1cc(NC(=O)c2ccccc2)ccc1OCC(O)CNC(C)C (stereo unspecified)
[out] 5.8 mg/kg

[in] Query: Activity; subject: CC(=O)Nc1ccc(OCC(O)CNC(C)C)c(C(C)=O)c1 (stereo unspecified)
[out] >15 mg/kg

[in] Query: Activity; subject: CC(=O)c1cc(NC(=O)C(C)C)ccc1OCC(O)CNC(C)C (stereo unspecified)
[out] 17.2 mg/kg

[in] Query: Activity; subject: CCCC(=O)Nc1ccc(OCC(O)CNC(C)C)c(C(=O)CCC)c1 (stereo unspecified)
[out] 3.5 mg/kg

[in] Query: Activity; subject: CCCCCCCC(=O)Nc1ccc(OCC(O)CNC(C)C)c(C(C)=O)c1 (racemic)
[out] 3.9 mg/kg

[in] Query: Activity; subject: CCCCC(=O)Nc1ccc(OCC(O)CNC(C)C)c(C(C)=O)c1 (stereo unspecified)
[out] 4.8 mg/kg

[in] Query: Activity; subject: CC(=O)Nc1ccc(OCC(O)CNC(C)C)cc1 (stereo unspecified)
[out] >35 mg/kg

====

test system: Felis catus; assay: In vivo beta-1 adrenergic receptor blocking activity in iv dosed cat assessed as half dose required for desensitizing isoproterenol-induced tachycardia after 3.5 mins; format: functional
Quantity measured: Activity (mg/kg)
Quick reminder: number only, in mg/kg, skip the unit.

>>> test_result("CCCC(=O)Nc1ccc(OCC(O)CNC(C)C)c(C(C)=O)c1 (stereo not given)")
0.13
>>> test_result("CCCC(=O)Nc1ccc(OCC(O)CNC(C)C)c(C(=O)CC)c1 (stereo not given)")
0.079
>>> test_result("CCC(=O)Nc1ccc(OCC(O)CNC(C)C)c(C(C)=O)c1 (racemic)")
0.063

[in] Query: Activity; subject: CCCCCC(=O)Nc1ccc(OCC(O)CNC(C)C)c(C(C)=O)c1 (stereo not given)
[out] 0.029

[in] Query: Activity; subject: CC(=O)Nc1ccc(OCC(O)CNC(C)C)cc1 (stereo not given)
[out] 0.158

[in] Query: Activity; subject: CC(=O)c1cc(NC(=O)CC(C)C)ccc1OCC(O)CNC(C)C (stereo not given)
[out] 0.11

[in] Query: Activity; subject: CCCCCCC(=O)Nc1ccc(OCC(O)CNC(C)C)c(C(C)=O)c1 (stereo not given)
[out] 0.04

[in] Query: Activity; subject: CC(=O)c1cc(NC(=O)Cc2ccccc2)ccc1OCC(O)CNC(C)C (stereo not given)
[out] 0.03

[in] Query: Activity; subject: CCCCCCCC(=O)Nc1ccc(OCC(O)CNC(C)C)c(C(C)=O)c1 (racemic)
[out] 0.05

[in] Query: Activity; subject: CC(=O)c1cc(NC(=O)C(C)C)ccc1OCC(O)CNC(C)C (stereo not given)
[out] 0.1

[in] Query: Activity; subject: CC(=O)Nc1ccc(OCC(O)CNC(C)C)c(C(C)=O)c1 (stereo not given)
[out] 0.089

[in] Query: Activity; subject: CCCCC(=O)Nc1ccc(OCC(O)CNC(C)C)c(C(C)=O)c1 (stereo not given)
[out] 0.033

Data origin: ChEMBL document CHEMBL3272136
